test-details: Metabolic stability in liver microsomes (unknown origin) assessed as half life at 0.5 mg/ml measured up to 60 mins by LC-MS/MS analysis
Format: ADME, Microsome
particulars: human
measurement-name: half-life
Give me the value, and tack the unit on after it.

half-life recorded for this compound, `O=C(O)Cc1ccccc1Nc1c(Cl)cccc1Cl` , is 5.5 min

---

test-details: MRT (0 to t) in male Sprague-Dawley rat at 2 mg/kg, iv measured up to 24 hrs by LC-MS/MS analysis
Format: ADME, organism-based
particulars: in vivo
measurement-name: MRT last at 24 h (min)
Dear colleague, please return just the value in min, with no unit written.

Please fill in: MRT last at 24 h reported for `O=C(Nc1cc(Cl)cc(Cl)c1)c1nc(-c2cccc(Cl)c2)cs1` = 38.4
